Biological target: ERα (Homo sapiens)
Sequence (P03372 whole entry): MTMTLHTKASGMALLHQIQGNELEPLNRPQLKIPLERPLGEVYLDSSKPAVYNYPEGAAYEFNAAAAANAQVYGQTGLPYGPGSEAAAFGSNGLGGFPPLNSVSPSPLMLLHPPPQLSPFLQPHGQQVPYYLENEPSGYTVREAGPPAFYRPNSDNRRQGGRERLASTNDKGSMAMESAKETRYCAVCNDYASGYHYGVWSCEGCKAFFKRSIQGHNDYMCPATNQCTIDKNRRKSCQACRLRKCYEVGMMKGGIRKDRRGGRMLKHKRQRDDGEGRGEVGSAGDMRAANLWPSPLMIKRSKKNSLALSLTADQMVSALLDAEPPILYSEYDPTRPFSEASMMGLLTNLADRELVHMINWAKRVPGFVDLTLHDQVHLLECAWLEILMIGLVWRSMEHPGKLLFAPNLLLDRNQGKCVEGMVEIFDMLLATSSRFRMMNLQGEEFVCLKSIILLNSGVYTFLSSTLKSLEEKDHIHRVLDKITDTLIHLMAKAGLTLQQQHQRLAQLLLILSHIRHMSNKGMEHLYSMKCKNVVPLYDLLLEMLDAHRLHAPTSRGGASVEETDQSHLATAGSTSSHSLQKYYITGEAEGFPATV
Assay: ERα degradation in MCF-7 cells (Western blot)
Type: cell-based
Design: host or cells: MCF-7
Details: 10nM, 4 hours
Method: Test Example 4 Effect of PROTAC Compounds Disclosed in the Present Invention on ERα Degradation in MCF-7 Cells MCF-7 (ATCC) cells were cultured in DMEM medium (11995-065, Gibco) containing 10% FBS (10099141C, Gibco) at 37°C and 5% CO2 until they entered the logarithmic growth phase. MCF-7 cells were plated at a density of 3×10^5 cells/well in a 6-well plate and incubated at 37°C, 5% CO2 for 24 hours. […] The supernatant was carefully collected and analyzed for ERα protein levels by immunoblotting. […]
PROPERTY LABEL: Degradation rate of ERα in MCF-7 cells (%)
Reply with just the number (in %).

The following compounds have reported results that may help.
{"COMPOUND": "C[C@@H]1Cc2cc(O)ccc2C(c2c(F)cc(N3CCC4(CC3)CC(N3CCC5(CC3)CCC3(CC5)COc5c3ccc3c5CN(C5CCC(=O)NC5=O)C3=O)C4)cc2F)N1CC(F)F (some centres unmarked)", "TESTED ON": "ERα (Homo sapiens)", "OBSERVED MEASUREMENT": 62}
{"COMPOUND": "O=C1CCC(Nc2ccc3c(c2)OC[C@@H]2CN(C4CC5(CCN(c6ccc([C@@H]7c8ccc(O)cc8CC[C@@H]7c7ccccc7)cc6)CC5)C4)CCN32)C(=O)N1 (some centres unmarked)", "TESTED ON": "ERα (Homo sapiens)", "OBSERVED MEASUREMENT": -3}
{"COMPOUND": "O=C1CCC(N2Cc3c(ccc4c3OCC43CCC4(CCN(C5CCC6(CC5)CN(c5ccc([C@@H]7c8ccc(O)cc8CC[C@@H]7c7ccccc7)cc5)C6)CC4)CC3)C2=O)C(=O)N1 (some centres unmarked)", "TESTED ON": "ERα (Homo sapiens)", "OBSERVED MEASUREMENT": 48}
{"COMPOUND": "O=C1CCC(N2Cc3c(ccc4c3OCC43CCC4(CCN(C5CC6(CCN(c7ccc([C@@H]8c9ccc(O)cc9CC[C@@H]8c8ccccc8)cc7)CC6)C5)CC4)CC3)C2=O)C(=O)N1 (some centres unmarked)", "TESTED ON": "ERα (Homo sapiens)", "OBSERVED MEASUREMENT": 69}

Proceeding to the next compound to report its Degradation rate of ERα in MCF-7 cells (%).
Ask: Return Degradation rate of ERα in MCF-7 cells (%) (reported value) for this compound: Cn1c(=O)n(C2CCC(=O)NC2=O)c2cc3c(cc21)OC1(CC3)CCN(C[C@H]2CC[C@@H](OC3CCN(c4ccc([C@@H]5c6ccc(O)cc6CC[C@@H]5c5ccccc5)cc4)CC3)CC2)CC1 (some centres unmarked)
Result: 62
